Test target: human Survivin wild type (human, UniProt O15392 1-142)
Sequence (O15392 whole entry): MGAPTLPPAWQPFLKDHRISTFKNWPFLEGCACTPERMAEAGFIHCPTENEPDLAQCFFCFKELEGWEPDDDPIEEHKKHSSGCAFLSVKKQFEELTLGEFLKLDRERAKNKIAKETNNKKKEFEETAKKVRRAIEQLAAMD
Method: ITC
Reported metric: Kd (µM)
Please state the figure in µM; there is no need to write the unit.

Query: Entry ARTKQTARKSTG [histone H3 N-terminal peptide ARTKQTARKSTG, unmodified] has what Kd?
Result: 21.4

Numbers sourced from paper PMC3327328.
